Reference source: patent US20260226066A1

- SUBJECT_OF_TEST: 15-PGDH/HPGD (Homo sapiens, UniProt P15428)
- Sequence (P15428 whole entry): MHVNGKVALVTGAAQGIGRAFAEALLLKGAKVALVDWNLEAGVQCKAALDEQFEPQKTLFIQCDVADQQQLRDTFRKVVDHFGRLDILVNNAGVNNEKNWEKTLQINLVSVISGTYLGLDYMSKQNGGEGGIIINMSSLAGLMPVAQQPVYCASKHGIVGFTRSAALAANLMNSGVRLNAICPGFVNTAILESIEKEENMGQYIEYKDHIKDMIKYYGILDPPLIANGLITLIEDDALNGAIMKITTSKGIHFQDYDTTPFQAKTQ
- PROTOCOL_TEXT: hPGDH inhibitor screening biochemical assay
- CONDITION_SUMMARY: 10 nM enzyme, fluorescence ex/em 340/485 nm
ATTRIBUTE_MEASURED: IC50

In [3]: df
Out[3]:
                                   compound  readout_value
0  CCCC[S@+]([O-])c1cnc2c(cnn2-c2cccc(-c3nnc[nH]3)c2)c1 (single isomer, unassigned) [Compound 36B]       < 100 nM

Read the entry [O-][S+](CCCC(F)(F)F)c1cnc2c(cnn2-c2cccc(-c3nnc[nH]3)c2)c1 (stereo not shown) [Compound 22A] and write its reported IC50. 100 to 1000 nM

For the compound COCCC[S+]([O-])c1cnc2c(ccn2-c2cccc(-c3nnc[nH]3)c2)n1 (stereo not shown) [Compound 103B] , give its reported IC50. < 100 nM
